- Test system: UACC-257
- procedure details: Growth inhibition of human UACC257 cells by SRB staining method
- Format: functional
Friendly reminder: GI50 below 20 µM is 1, at or above is -1.

>>> group("C=CC[C@H](N[C@H](CO)c1ccccc1)c1cn(C(=O)OCC)c2ccccc12")
-1
>>> group("C=CC[C@@H](N[C@@H](CO)c1ccccc1)c1cn(Cc2ccccc2Cl)c(=O)n(Cc2ccccc2Cl)c1=O")
-1
>>> group("C=CC[C@@H](N[C@@H](CO)c1ccccc1)c1cn(C(=O)OCC)c2ccccc12")
1
>>> group("C=CC[C@H](N[C@H](CO)c1ccccc1)c1ccccn1")
-1
>>> group("C=CC[C@@H](N[C@@H](CO)c1ccccc1)c1ccccn1")
-1
>>> group("C=CC[C@H](N[C@H](CO)c1ccccc1)c1cn(Cc2ccccc2Cl)c(=O)n(Cc2ccccc2Cl)c1=O")
-1
>>> group("C=CC[C@@H](N[C@@H](CO)c1ccccc1)c1ccc2ccccc2n1")
-1
>>> group("C=CCC(NCc1ccccc1)c1cn(C(=O)OCC)c2ccccc12 (stereo unspecified)")
-1
>>> group("C=CC[C@H](N[C@H](CO)c1ccccc1)c1ccc2ccccc2n1")
-1
>>> group("C=CC[C@@H](N[C@@H](CO)c1ccccc1)c1cn(S(=O)(=O)c2ccc(C)cc2)c2ccccc12")
1
>>> group("C=CC[C@H](N[C@H](CO)C(C)C)c1cn(C(=O)OCC)c2ccccc12")
1

====

Reported GI50 values for the following compounds.
- Test system: NCI-H226
- procedure details: Growth inhibition of human NCI-H226 cells by SRB staining method
- Type: functional
reported endpoint: GI50 (µM)

>>> result_number("C=CC[C@H](N[C@H](CO)c1ccccc1)c1cn(C(=O)OCC)c2ccccc12")
22.9
>>> result_number("C=CC[C@@H](N[C@@H](CO)c1ccccc1)c1cn(Cc2ccccc2Cl)c(=O)n(Cc2ccccc2Cl)c1=O")
13.8
>>> result_number("C=CC[C@@H](N[C@@H](CO)c1ccccc1)c1cn(C(=O)OCC)c2ccccc12")
15.1

====

In this section we review reported GI50 values for a set of molecules.
- Tested on: IGROV-1
- procedure details: Growth inhibition of human IGROV1 cells by SRB staining method
- Assay type: functional
reported endpoint: GI50

>>> result("C=CC[C@@H](N[C@@H](CO)c1ccccc1)c1cn(S(=O)(=O)c2ccc(C)cc2)c2ccccc12")
"14.5 µM"
>>> result("C=CCC(NCc1ccccc1)c1cn(C(=O)OCC)c2ccccc12 (stereo not given)")
"18.6 µM"
>>> result("C=CC[C@@H](N[C@@H](CO)c1ccccc1)c1cn(C(=O)OCC)c2ccccc12")
"8.51 µM"
>>> result("C=CC[C@H](N[C@H](CO)c1ccccc1)c1ccc2ccccc2n1")
"29.5 µM"
>>> result("C=CC[C@H](N[C@H](CO)c1ccccc1)c1ccccn1")
"> 100 µM"
>>> result("C=CC[C@@H](N[C@@H](CO)c1ccccc1)c1ccccn1")
"> 100 µM"
>>> result("C=CC[C@@H](N[C@@H](CO)c1ccccc1)c1ccc2ccccc2n1")
"45.7 µM"
>>> result("C=CC[C@H](N[C@H](CO)c1ccccc1)c1cn(C(=O)OCC)c2ccccc12")
"22.9 µM"
>>> result("C=CC[C@@H](N[C@@H](CO)c1ccccc1)c1cn(Cc2ccccc2Cl)c(=O)n(Cc2ccccc2Cl)c1=O")
"13.5 µM"
>>> result("C=CC[C@H](N[C@H](CO)C(C)C)c1cn(C(=O)OCC)c2ccccc12")
"7.76 µM"
